target: human H3 receptor (Homo sapiens); construct: expressed in transfected cells; assay: In vitro H3 binding assay (3H-N-α-methyl-histamine competition binding); details: membranes of CHO-K1 cells expressing human H3 receptor; 2 nM 3H-NαMH; read-out: hH3 binding IC50
readout: IC50 (nM)

>>> recorded_result("Cn1ccc(CCC(=O)c2ccc3c(c2)CCN(C2CCC2)CC3)n1")
13
>>> recorded_result("Cn1nc(CNC(=O)c2ccc3c(c2)CCN(C2CCC2)CC3)cc1-c1ccccc1")
1
>>> recorded_result("O/N=C(\\CCc1ccccc1)c1ccc2c(c1)CCN(C1CCC1)CC2")
6

(A) O=C(Cc1ccc2c(c1)CCN(C1CCC1)CC2)Nc1cccnc1
(B) Nc1ncccc1CNC(=O)c1ccc2c(c1)CCN(C1CCC1)CC2
Which one would you say has the larger IC50 value: A , or B ? Please indicate the selected item by its label.
B

(P) O=C(NCC1CCCC1)c1ccc2c(c1)CCN(C1CCC1)CC2
(Q) O=C(NCc1ccccc1)c1ccc2c(c1)CCN(C1CCCC1)CC2
Min IC50? P | Q Please indicate the selected item by its label.
P

====

biological target: human H3 receptor (Homo sapiens, UniProt Q9Y5N1); construct: expressed in transfected cells; assay: In vitro H3 functional assay (cAMP response element driven luciferase reporter); format: cell-based; details: CHO(dhfr+)-cre-luc cells expressing human H3 receptor; RαMH 10 nM, forskolin 1 μM; read-out: hH3 functional IC50
Sequence (Q9Y5N1 whole entry): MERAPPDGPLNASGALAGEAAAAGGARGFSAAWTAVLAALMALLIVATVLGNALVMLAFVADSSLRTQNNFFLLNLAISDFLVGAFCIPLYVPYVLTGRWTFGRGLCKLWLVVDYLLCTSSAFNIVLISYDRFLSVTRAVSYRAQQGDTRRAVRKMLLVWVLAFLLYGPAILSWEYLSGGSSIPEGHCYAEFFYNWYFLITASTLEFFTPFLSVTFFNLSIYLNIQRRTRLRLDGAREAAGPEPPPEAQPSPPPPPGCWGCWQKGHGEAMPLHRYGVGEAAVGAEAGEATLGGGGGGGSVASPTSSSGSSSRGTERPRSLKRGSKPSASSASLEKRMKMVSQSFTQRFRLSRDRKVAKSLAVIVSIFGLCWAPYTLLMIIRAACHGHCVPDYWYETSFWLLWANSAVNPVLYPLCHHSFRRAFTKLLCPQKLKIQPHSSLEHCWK
readout: IC50 (nM)

(1) Cn1cncc1CNC(=O)c1ccc2c(c1)CCN(C1CCC1)CC2 [Example 114]
(2) O=C(NCc1ccncc1)c1ccc2c(c1)CCN(C1CCC1)CC2 [Example 40]
Which one would you say has the larger IC50 value: 1 , or 2 ? Please indicate the selected item by its label.
1
(1: 19 nM, 2: 2 nM)

(A) CCC(=O)N1CCC(CC(O)Cc2ccc3c(c2)CCN(C2CCC2)CC3)CC1 (single isomer, unassigned) [Example 233]
(B) O=C(NCc1ccc2c(c1)CCN(C1CCC1)CC2)c1cncc(F)c1 [Example 191]
Which one would you say has the larger IC50 value: A , or B ? Please indicate the selected item by its label.
A

(P) O=C(NCc1ccc2c(c1)CCN(C1CCC1)CC2)c1ccc(NC2CCC2)nc1 [Example 253]
(Q) NC(=O)c1ccc2c(c1)CCN(C1CCC1)CC2 [Example 167]
Which one would you say has the larger IC50 value: P , or Q ? Please indicate the selected item by its label.
Q
(Q: 71 nM, P: 4 nM)

(a) O=C(NCC1CCS(=O)(=O)C1)c1ccc2c(c1)CCN(C1CCC1)CC2 (stereo not shown) [Example 171]
(b) O=C(NCc1ccc2[nH]ccc2c1)c1ccc2c(c1)CCN(C1CCC1)CC2 [Example 74]
Which one would you say has the larger IC50 value: a , or b ? Please indicate the selected item by its label.
a
(a: 4 nM, b: 1 nM)

====

biological target: human H3 receptor (Homo sapiens); construct: expressed in transfected cells; experiment: In vitro H3 binding assay (3H-N-α-methyl-histamine competition binding); settings: membranes of CHO-K1 cells expressing human H3 receptor; 2 nM 3H-NαMH; read-out: hH3 binding IC50
pIC50: −log10 of the molar value.
readout: pIC50

>>> recorded_result("CCC(=O)N1CCC[C@H](CC(O)Cc2ccc3c(c2)CCN(C2CCC2)CC3)C1 (single isomer, unassigned)")
7.96

(I) O=C(NCc1cccc(-c2nccs2)c1)c1ccc2c(c1)CCN(C1CCC1)CC2
(II) CC(=O)N1CCCC(CNC(=O)c2ccc3c(c2)CCN(C2CCC2)CC3)C1 (centres unmarked)
(III) C[C@@H]1CCCN1C(=O)NCc1ccc2c(c1)CCN(C1CCC1)CC2
Arrange items by their pIC50 values in increasing order. API: response body holds the labels in the requested order.
II, III, I

(P) CCn1cc(CNC(=O)c2ccc3c(c2)CCN(C2CCC2)CC3)c(C)n1
(Q) Cc1occc1CNC(=O)c1ccc2c(c1)CCN(C1CCC1)CC2
Which one would you say has the larger pIC50 value: P , or Q ? Please indicate the selected item by its label.
Q
(Q: 8.00, P: 7.74)

====

target: human H3 receptor (Homo sapiens); construct: expressed in transfected cells; experiment: In vitro H3 binding assay (3H-N-α-methyl-histamine competition binding); conditions: membranes of CHO-K1 cells expressing human H3 receptor; 2 nM 3H-NαMH; read-out: hH3 binding IC50
readout: IC50 (nM)

These recorded examples may help you get a feel for the data.
>>> recorded_result("CNc1ncc(C(=O)NCc2ccc3c(c2)CCN(C2CCC2)CC3)cn1 [Example 302]")
3
>>> recorded_result("Cc1nn(C)cc1CNC(=O)c1ccc2c(c1)CCN(C1CCC1)CC2 [Example 98]")
15
>>> recorded_result("O=C(NCc1cccs1)c1ccc2c(c1)CCN(C1CCC1)CC2 [Example 87]")
4
>>> recorded_result("COc1ccc(C(=O)NCc2ccc3c(c2)CCN(C2CC(O)C2)CC3)cn1 (centres unmarked) [Example 262]")
25
>>> recorded_result("Cc1oc(-c2ccccc2)nc1CNC(=O)c1ccc2c(c1)CCN(C1CCC1)CC2 [Example 85]")
14
>>> recorded_result("CCNC(=O)C1CCC(O)(Cc2ccc3c(c2)CCN(C2CCC2)CC3)CC1 (centres unmarked) [Example 231]")
23
>>> recorded_result("Cc1c(CNC(=O)c2ccc3c(c2)CCN(C2CCC2)CC3)cnn1C [Example 97]")
9
>>> recorded_result("CCC(=O)N1CCC(C)(C(O)Cc2ccc3c(c2)CCN(C2CCC2)CC3)CC1 (single isomer, unassigned) [Example 257]")
25
>>> recorded_result("O=C(NCc1ccc2c(c1)CCN(C1CCOC1)CC2)c1ccc(N2CCCC2)nc1 (centres unmarked) [Example 269]")
2.5
>>> recorded_result("CC(=O)N1CCC(C(O)Cc2ccc3c(c2)CCN(C2CCC2)CC3)CC1 (racemic) [Example 146]")
10

(a) Cc1nocc1C(=O)NCc1ccc2c(c1)CCN(C1CCC1)CC2 [Example 276]
(b) Cn1nccc1CNC(=O)c1ccc2c(c1)CCN(C1CCC1)CC2 [Example 1]
(c) COc1ccc(NC(=O)Cc2ccc3c(c2)CCN(C2CCC2)CC3)cn1 [Example 274]
(d) COc1ccc(CNC(=O)c2ccc3c(c2)CCN(C2CCC2)CC3)cc1 [Example 49]
(e) O=C(NCc1ccsc1)c1ccc2c(c1)CCN(C1CCC1)CC2 [Example 88]
Arrange items by their IC50 values in increasing order. API: response body holds the labels in the requested order.
b, e, c, a, d
(b: 1 nM, e: 5 nM, c: 9 nM, a: 19 nM, d: 34 nM)

====

molecular target: human H3 receptor (Homo sapiens, UniProt Q9Y5N1); construct: expressed in transfected cells; test: In vitro H3 functional assay (cAMP response element driven luciferase reporter); type: cell-based; settings: CHO(dhfr+)-cre-luc cells expressing human H3 receptor; RαMH 10 nM, forskolin 1 μM; read-out: hH3 functional IC50
pIC50: −log10 of the molar value.
readout: pIC50

>>> recorded_result("Cn1nc(CNC(=O)c2ccc3c(c2)CCN(C2CCC2)CC3)cc1-c1ccccc1")
8.40

(1) CCCOc1ccc(C(=O)NCc2ccc3c(c2)CCN(C2CCC2)CC3)cn1
(2) O=C1CCCN1Cc1ccc2c(c1)CCN(C1CCC1)CC2
Which one would you say has the larger pIC50 value: 1 , or 2 ? Please indicate the selected item by its label.
1

====

target: human H3 receptor (Homo sapiens); construct: expressed in transfected cells; assay: In vitro H3 binding assay (3H-N-α-methyl-histamine competition binding); settings: membranes of CHO-K1 cells expressing human H3 receptor; 2 nM 3H-NαMH; read-out: hH3 binding IC50
pIC50: −log10 of the molar value.
readout: pIC50

These recorded examples may help you get a feel for the data.
>>> recorded_result("O=C(NCc1ccccc1)c1ccc2c(c1)CCN(C1CCC1)CC2 [Example 23]")
7.96
>>> recorded_result("O=C(NCc1ccc2c(c1)CCN(C1CCC1)CC2)c1ccc(NC2CCC2)nc1 [Example 253]")
9.00
>>> recorded_result("O=C(NCc1ccoc1)c1ccc2c(c1)CCN(C1CCC1)CC2 [Example 89]")
7.74
>>> recorded_result("CO/N=C(\\CCc1ccccc1)c1ccc2c(c1)CCN(C1CCC1)CC2 [Example 131]")
7.52
>>> recorded_result("O=C(NCC1CCCO1)c1ccc2c(c1)CCN(C1CCC1)CC2 (centres unmarked) [Example 36]")
7.92
>>> recorded_result("O=C(NCc1ccc2c(c1)CCN(C1CCC1)CC2)c1cnccn1 [Example 181]")
7.68

(A) O=C(C1CCC1)N1CCC(O)(Cc2ccc3c(c2)CCN(C2CCC2)CC3)CC1 [Example 155]
(B) O=C(NCc1cccnc1)c1ccc2c(c1)CCN(C1CCC1)CC2 [Example 42]
Min pIC50? A | B Please indicate the selected item by its label.
A

(P) Cn1nc(CNC(=O)c2ccc3c(c2)CCN(C2CCC2)CC3)c2ccccc21 [Example 73]
(Q) O=C(NCc1c[nH]c2ccccc12)c1ccc2c(c1)CCN(C1CCC1)CC2 [Example 72]
Min pIC50? P | Q Please indicate the selected item by its label.
P
(P: 7.92, Q: 9.00)
